- Test system: P. falciparum stage V gametocytes
- Design: BacTiter-Glo ATP luminescence viability of purified stage V gametocytes in 384-well plates, per cent inhibition versus DMSO
- settings: 48 h, 5 µM; inhibitor
Screen size: about 13,000 compounds; about 3,200 (25%) showed an effect of 50% or more. The list shows a part of the results.
Decide using % Inhibition: a value greater than or equal to 20% is class 1, a smaller one is class 0.

>>> assigned_category("O=C(Nc1cccc(CN2CCCN(Cc3ccc(O)cc3)CC2)c1)c1cc2ccccc2o1")
"class 1"
>>> assigned_category("COc1cc(NC(=O)/C=C/c2ccccc2OC(F)(F)F)cc(OCCN2CCC(O)(c3ccccc3)CC2)c1")
"class 0"
>>> assigned_category("COc1ccc(CN2CCC(NCc3cccc(C(F)(F)F)c3)CC2)cc1")
"class 1"
>>> assigned_category("Cc1[nH]c(C)c(-c2ccc(C(=O)c3ccc(Cl)cc3)cc2)c(=O)c1Br")
"class 1"
>>> assigned_category("COc1ccc2nccc([C@@H](O)CN3CCC(NC(=O)CCC(=O)c4cc(C(C)(C)C)ccc4OC)CC3)c2c1")
"class 1"
>>> assigned_category("CC(C)n1nc(C(=O)N2CCN(c3ccccc3)CC2)c2ccccc2c1=O")
"class 1"
>>> assigned_category("CCCC(=O)Nc1ccc(OCCCCN(Cc2ccccc2C(F)(F)F)c2ccc(C(F)(F)F)c(C#N)c2)cc1")
"class 1"
>>> assigned_category("CC(=O)CC(=O)N1CCN(c2ccccc2)CC1")
"class 0"
>>> assigned_category("CCCCCCCOc1ccc(NC(=O)Nc2ccc(Cn3ncc(N4CCCNCC4)c(Cl)c3=O)cc2)cc1")
"class 1"
>>> assigned_category("COc1ccc(CN(C)CCCCc2ccc(NC(=O)COc3cccc4sc5ccccc5c(=O)c34)cc2)cc1OC")
"class 1"
>>> assigned_category("Cc1cccc(CN2CCCN(Cc3ccc(C(=O)Nc4ccc(C(C)(C)C)cc4)cc3)CC2)c1")
"class 0"
>>> assigned_category("COc1cccc(-n2ncc3c(N/N=C/c4ccc(CN(C)CCN(C)C)cc4)ncnc32)c1")
"class 1"
>>> assigned_category("Cc1cccc2[nH]c(-c3cccc(-c4ccc(NC(=O)c5ccc(=O)[nH]n5)cc4)c3)nc12")
"class 0"
>>> assigned_category("Cc1nc(N)nc(N)c1CCCOc1ccccc1Br")
"class 0"
>>> assigned_category("Fc1ccc2[nH]c3c(NCCCN4CCOCC4)ncnc3c2c1")
"class 0"
>>> assigned_category("NC1=NC2(CCCCC2)N(Cc2ccc(Cl)c(Cl)c2)C(N)=N1")
"class 0"
>>> assigned_category("COc1ccc(CCN(C)CCCOc2ccc(NC(=O)COc3cccc4sc5ccccc5c(=O)c34)cc2)cc1OC")
"class 0"
>>> assigned_category("CC1(C)N=C(N)N=C(N)N1OCCCOc1c(Cl)cc(Cl)cc1Cl")
"class 0"
>>> assigned_category("COc1ccc(CCN(C)CCOc2ccc(NC(=O)COc3ccc4sc5ccccc5c(=O)c4c3)cc2)cc1OC")
"class 1"
>>> assigned_category("O=[N+]([O-])c1cccc(CNC2CCN(Cc3ccc(C(F)(F)F)cc3)CC2)c1")
"class 0"
>>> assigned_category("COc1ccc(CN(C)CCCc2ccc(NC(=O)c3cccc4c(=O)c5cccc(F)c5[nH]c34)cc2)cc1OC")
"class 1"
>>> assigned_category("Cc1[nH]c(C)c(-c2ccc(OCCCc3ccccn3)cc2)c(=O)c1Br")
"class 1"
>>> assigned_category("Cc1ccc(O)c(CN2CCCC(COC(c3ccc(F)cc3)c3ccc(F)cc3)C2)c1 (stereo not drawn)")
"class 0"
>>> assigned_category("COc1cc(CCN(C)Cc2ccc(OC)c(OC)c2)ccc1NC(=O)c1cccc2c(=O)c3cccc(F)c3[nH]c12")
"class 1"
>>> assigned_category("O=[N+]([O-])c1cccc(CNC2CCN(Cc3ccc4ccccc4c3)CC2)c1")
"class 1"
>>> assigned_category("CCOc1ccc(Nc2ccc3nonc3c2S(=O)(=O)Nc2ccc(OCC)cc2)cc1")
"class 0"
>>> assigned_category("O=[N+]([O-])c1cccc(CNC2CCN(Cc3ccc(Cl)c(Cl)c3)CC2)c1")
"class 1"
>>> assigned_category("CCNC(=O)c1ccc(-n2nc(C)cc2-c2ccccc2)cc1")
"class 0"
>>> assigned_category("O=[N+]([O-])c1cccc(CNCC2CCN(Cc3ccc4ccccc4c3)CC2)c1")
"class 1"
>>> assigned_category("CCN(CC)C(=O)c1cccc(C=Cc2ccc(-c3c(C)[nH]c(C)c(Cl)c3=O)cc2)c1")
"class 1"
>>> assigned_category("c1ccc2c3c([nH]c2c1)C(c1ccc2c(c1)CCO2)N(c1ncnc(N2CCN(CCCN4CCOCC4)CC2)n1)CC3 (stereo not drawn)")
"class 1"
